- System: THRa:RXRa (NR concentration 90 nM, RXRa partner concentration 90 nM)
- Method notes: PBM binding z-score (relative to random genomic background probes); higher = stronger binding; sequences stand for … in GC…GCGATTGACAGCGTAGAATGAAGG
We use 1 as the dividing line for PBM binding z-score: on or above the line is True, below is False.

- Sequence text: "TCTAGTTGATCACGGAGGTCACACACGACGGGTA"
  Category: "True"
- Sequence text: "TTACCAAGGTGAGCTGAGATCGTTGATCCAACTC"
  Category: "True"
- Sequence text: "GCTAGTTGGTCAGTAAAAGGTCAGACACCGGTCG"
  Category: "True"
- Sequence text: "TCTGCTAGGTTAGTTGGTCAGCTAACGAGCTGCC"
  Category: "False"
- Sequence text: "AGTCAAAGTTCAAGACGAGGTAACGTAAAGCACG"
  Category: "True"
- Sequence text: "ACTATTAGTCGACTTAGGGCAACCGATACGACGC"
  Category: "True"
